# assay_details: 13-week oral safety study in aged APP23 mice: plasma and brain concentrations of Compound 1 (toxicokinetics)
# Format: in vivo
# condition_label: female, APP23, mouse, brain / plasma, 0.3 g/kg food, day 96, read-out: brain concentration compared to plasma, range
measured_metric: Kp at 96 day

compound C[C@@]1(c2nc(NC(=O)c3ncc(C(F)(F)F)cc3Cl)ccc2F)CO[C@@](C)(C(F)(F)F)C(N)=N1 [Compound 1] , Kp at 96 day observed: 2.2 to 6.1

----------
# assay_details: 3-month dose-ranging study: plasma pharmacokinetics on Day 91
# Format: in vivo
# condition_label: human, oral, once daily dose of 15 mg, read-out: expected plasma Cmax,ss
measured_metric: Cmax

molecule `C[C@@]1(c2nc(NC(=O)c3ncc(C(F)(F)F)cc3Cl)ccc2F)CO[C@@](C)(C(F)(F)F)C(N)=N1` , Cmax observed: 70 to 170 ng/mL
